Target or system Escherichia coli ATCC 25922; recorded quantity log10(MIC).
Transform log10 | Measure MIC | Unit µg/mL

Guide cases for log10(MIC), answers given:
CC[C@H]1OC(=O)[C@H](C)[C@@H](O[C@H]2C[C@@](C)(OC)[C@@H](O)[C@H](C)O2)[C@H](C)[C@@H](O[C@@H]2O[C@H](C)C[C@H](N(C)C)[C@H]2O)[C@](C)(O)C[C@@H](C)/C(=N\OCCCCCCNCCCCCNCc2ccccc2)[C@H](C)[C@@H](O)[C@]1(C)O [Compound 8] | 0.60
CC[C@H]1OC(=O)[C@H](C)[C@@H](O[C@H]2C[C@@](C)(OC)[C@@H](O)[C@H](C)O2)[C@H](C)[C@@H](O[C@@H]2O[C@H](C)C[C@H](N(C)C)[C@H]2O)[C@](C)(O)C[C@@H](C)/C(=N\OCCNCCCCCCNCc2ccccc2[N+](=O)[O-])[C@H](C)[C@@H](O)[C@]1(C)O [Compound 33] | 0.60
CC[C@H]1OC(=O)[C@H](C)[C@@H](O[C@H]2C[C@@](C)(OC)[C@@H](O)[C@H](C)O2)[C@H](C)[C@@H](O[C@@H]2O[C@H](C)C[C@H](N(C)C)[C@H]2O)[C@](C)(O)C[C@@H](C)/C(=N\OCCCNCCCCCCNCc2ccccc2)[C@H](C)[C@@H](O)[C@]1(C)O [Compound 12] | 0.90
CC[C@H]1OC(=O)[C@H](C)[C@@H](O[C@H]2C[C@@](C)(OC)[C@@H](O)[C@H](C)O2)[C@H](C)[C@@H](O[C@@H]2O[C@H](C)C[C@H](N(C)C)[C@H]2O)[C@](C)(O)C[C@@H](C)/C(=N\OCOCCOC)[C@H](C)[C@@H](O)[C@]1(C)O [Roxithromycin, reference compound] | 1.45
CC[C@H]1OC(=O)[C@H](C)[C@@H](O[C@H]2C[C@@](C)(OC)[C@@H](O)[C@H](C)O2)[C@H](C)[C@@H](O[C@@H]2O[C@H](C)C[C@H](N(C)C)[C@H]2O)[C@](C)(O)C[C@@H](C)/C(=N\OCCNCCCCCCNCc2ccco2)[C@H](C)[C@@H](O)[C@]1(C)O [Compound 31] | 0.60

Qu. For Escherichia coli ATCC 25922, provide log10(MIC) of CC[C@H]1OC(=O)[C@H](C)[C@@H](O[C@H]2C[C@@](C)(OC)[C@@H](O)[C@H](C)O2)[C@H](C)[C@@H](O[C@@H]2O[C@H](C)C[C@H](N(C)C)[C@H]2O)[C@](C)(O)C[C@@H](C)/C(=N\OCCNCCCCCCNCc2cccc(C(F)(F)F)c2)[C@H](C)[C@@H](O)[C@]1(C)O [Compound 19] please.
Ans. 0.30

Qu. For Escherichia coli ATCC 25922, provide log10(MIC) of CC[C@H]1OC(=O)[C@H](C)[C@@H](O[C@H]2C[C@@](C)(OC)[C@@H](O)[C@H](C)O2)[C@H](C)[C@@H](O[C@@H]2O[C@H](C)C[C@H](N(C)C)[C@H]2O)[C@](C)(O)C[C@@H](C)/C(=N\OCCNCCCCCCNCc2ccc(-c3ccccc3)cc2)[C@H](C)[C@@H](O)[C@]1(C)O [Compound 30] please.
Ans. 0.00

###

test system: Streptococcus pyogenes C 203; assay: In vitro antibacterial activity, MIC, broth microdilution; type: cell-based; conditions: Streptococcus pyogenes, C203; S. pyogenes C 203; MHB + 5% horse serum; 37° C., 18 hours; read-out: minimum inhibiting concentration MIC
measurement-name: MIC (µg/mL)
Please give a number only; it is taken to be in µg/mL.

Qu. Report MIC for CC[C@H]1OC(=O)[C@H](C)[C@@H](O[C@H]2C[C@@](C)(OC)[C@@H](O)[C@H](C)O2)[C@H](C)[C@@H](O[C@@H]2O[C@H](C)C[C@H](N(C)C)[C@H]2O)[C@](C)(O)C[C@@H](C)/C(=N\OCCNCCCCCCNCc2ccc(C(F)(F)F)cc2)[C@H](C)[C@@H](O)[C@]1(C)O [Compound 23] please.
Ans. 0.0156

Qu. Report MIC for CC[C@H]1OC(=O)[C@H](C)[C@@H](O[C@H]2C[C@@](C)(OC)[C@@H](O)[C@H](C)O2)[C@H](C)[C@@H](O[C@@H]2O[C@H](C)C[C@H](N(C)C)[C@H]2O)[C@](C)(O)C[C@@H](C)/C(=N\OCCNCCCCCCNCc2ccc(O)cc2)[C@H](C)[C@@H](O)[C@]1(C)O [Compound 28] please.
Ans. 0.125

Qu. Report MIC for CC[C@H]1OC(=O)[C@H](C)[C@@H](O[C@H]2C[C@@](C)(OC)[C@@H](O)[C@H](C)O2)[C@H](C)[C@@H](O[C@@H]2O[C@H](C)C[C@H](N(C)C)[C@H]2O)[C@](C)(O)C[C@@H](C)/C(=N\OCCNCCCCCCNCc2ccc([N+](=O)[O-])c(O)c2)[C@H](C)[C@@H](O)[C@]1(C)O [Compound 37] please.
Ans. 0.0039

###

system: Streptococcus pneumoniae BS 3; assay: In vitro antibacterial activity, MIC, broth microdilution; assay type: cell-based; details: Streptococcus pneumoniae, BS3; S. pneumoniae BS 3; MHB + 5% horse serum; 37° C., 18 hours; read-out: minimum inhibiting concentration MIC
measurement-name: MIC
Enter the number, and then the unit.

Guide cases for MIC, answers given:
CC[C@H]1OC(=O)[C@H](C)[C@@H](O[C@H]2C[C@@](C)(OC)[C@@H](O)[C@H](C)O2)[C@H](C)[C@@H](O[C@@H]2O[C@H](C)C[C@H](N(C)C)[C@H]2O)[C@](C)(O)C[C@@H](C)/C(=N\OCCNCCCCCCNCc2ccccc2O)[C@H](C)[C@@H](O)[C@]1(C)O | 0.0078 µg/mL
CC[C@H]1OC(=O)[C@H](C)[C@@H](O[C@H]2C[C@@](C)(OC)[C@@H](O)[C@H](C)O2)[C@H](C)[C@@H](O[C@@H]2O[C@H](C)C[C@H](N(C)C)[C@H]2O)[C@](C)(O)C[C@@H](C)/C(=N\OCCNCCCCCCCCNCc2ccccc2)[C@H](C)[C@@H](O)[C@]1(C)O | 0.0078 µg/mL

Next compound, MIC to be filled in.
Qu. Report MIC for CC[C@H]1OC(=O)[C@H](C)[C@@H](O[C@H]2C[C@@](C)(OC)[C@@H](O)[C@H](C)O2)[C@H](C)[C@@H](O[C@@H]2O[C@H](C)C[C@H](N(C)C)[C@H]2O)[C@](C)(O)C[C@@H](C)/C(=N\OCOCCOC)[C@H](C)[C@@H](O)[C@]1(C)O [Roxithromycin, reference compound] please.
Ans. 0.0312 µg/mL

###

test system: Streptococcus pyogenes C 203; assay: In vitro antibacterial activity, MIC, broth microdilution; format: cell-based; settings: Streptococcus pyogenes, C203; S. pyogenes C 203; MHB + 5% horse serum; 37° C., 18 hours; read-out: minimum inhibiting concentration MIC
measurement-name: MIC (ng/mL)
Please give a number only; it is taken to be in ng/mL.

CC[C@H]1OC(=O)[C@H](C)[C@@H](O[C@H]2C[C@@](C)(OC)[C@@H](O)[C@H](C)O2)[C@H](C)[C@@H](O[C@@H]2O[C@H](C)C[C@H](N(C)C)[C@H]2O)[C@](C)(O)C[C@@H](C)/C(=N\OCCNCCCCCNCc2ccccc2)[C@H](C)[C@@H](O)[C@]1(C)O | 3.9

Qu. Report MIC for `CC[C@H]1OC(=O)[C@H](C)[C@@H](O[C@H]2C[C@@](C)(OC)[C@@H](O)[C@H](C)O2)[C@H](C)[C@@H](O[C@@H]2O[C@H](C)C[C@H](N(C)C)[C@H]2O)[C@](C)(O)C[C@@H](C)/C(=N\OCCCCCCNCCCNCc2ccccc2)[C@H](C)[C@@H](O)[C@]1(C)O` please.
Ans. 15.6

Qu. Report MIC for `CC[C@H]1OC(=O)[C@H](C)[C@@H](O[C@H]2C[C@@](C)(OC)[C@@H](O)[C@H](C)O2)[C@H](C)[C@@H](O[C@@H]2O[C@H](C)C[C@H](N(C)C)[C@H]2O)[C@](C)(O)C[C@@H](C)/C(=N\OCCNCCCCCCNCc2ccccc2O)[C@H](C)[C@@H](O)[C@]1(C)O` please.
Ans. 3.9

Qu. Report MIC for `CC[C@H]1OC(=O)[C@H](C)[C@@H](O[C@H]2C[C@@](C)(OC)[C@@H](O)[C@H](C)O2)[C@H](C)[C@@H](O[C@@H]2O[C@H](C)C[C@H](N(C)C)[C@H]2O)[C@](C)(O)C[C@@H](C)/C(=N\OCCNCCCCCCNCc2ccco2)[C@H](C)[C@@H](O)[C@]1(C)O` please.
Ans. 3.9
